Reference source: patent US7598293B2

quantity measured: melting point

Consider the reported melting point for these compounds:
CCOC(Cc1ccc(NCCCc2ccc(OS(C)(=O)=O)cc2)cc1)C(=O)O (stereo not drawn) (hydrate or solvate) | 120 to 122 °C
CCOC(Cc1ccc(NCCCc2ccc(OS(=O)(=O)c3ccc(C)cc3)cc2)cc1)C(=O)O (stereo not drawn) (hydrate or solvate) | 98 to 100 °C
CO[C@@H](Cc1ccc(NC/C=C/c2ccc(OS(C)(=O)=O)cc2)cc1)C(=O)O (hydrate or solvate) | 116 to 118 °C
CCOC(=O)C(Cc1ccc(NC(=O)CCc2ccc(OS(C)(=O)=O)cc2)cc1)OCC (stereo not drawn) | 90 to 92 °C
CO[C@@H](Cc1ccc(NCCCc2ccc(OS(C)(=O)=O)cc2)cc1)C(=O)O | 90 to 92 °C
CCOC(Cc1ccc(NC(=O)CCc2ccc(OS(C)(=O)=O)cc2)cc1)C(=O)O (stereo not drawn) | 164 to 166 °C
CC(C)OC(Cc1ccc(NCCCc2ccc(OS(C)(=O)=O)cc2)cc1)C(=O)O (stereo not drawn) (hydrate or solvate) | 143 to 145 °C
CCOC(Cc1ccc(NC(=O)/C=C/c2ccc(OS(C)(=O)=O)cc2)cc1)C(=O)O (stereo not drawn) | 178 to 180 °C

Inquiry: Item under review: CCOC(Cc1ccc(NC/C=C/c2ccc(OS(C)(=O)=O)cc2)cc1)C(=O)O (stereo in doubt) . Reported melting point?
Reply text: 156 to 158 °C
